Can you tell me Oryza sativa (efficacy in %) for the items I'm about to list?
# System: Oryza sativa
# method summary: Post-emergence crop plant compatibility
# Format: in vivo
# protocol conditions: application rate 20 g/ha
Write the quantity with the unit trailing the number.

Ask | Which Oryza sativa (efficacy in %) is listed for COCCOC(=O)COc1ncc(F)cc1Sc1cc(-n2c(=O)cc(C(F)(F)F)n(C)c2=O)c(F)cc1Cl [I.31-1] ?
Reply | 20%

Ask | Which Oryza sativa (efficacy in %) is listed for CCOCCOC(=O)COc1ncccc1Oc1cc(-n2c(=O)cc(C(F)(F)F)n(C)c2=O)c(F)cc1[N+](=O)[O-] [I.14-2] ?
Reply | 10%

Ask | Which Oryza sativa (efficacy in %) is listed for COCCOCCOC(=O)COc1ncccc1Oc1cc(-n2c(=O)cc(C(F)(F)F)n(C)c2=O)c(F)cc1[N+](=O)[O-] [I.14-23] ?
Reply | 10%

Ask | Which Oryza sativa (efficacy in %) is listed for Cn1c(C(F)(F)F)cc(=O)n(-c2cc(Oc3cccnc3OCC(=O)OC3COC3)c([N+](=O)[O-])cc2F)c1=O [I.14-115] ?
Reply | 20%

Ask | Which Oryza sativa (efficacy in %) is listed for CCOC(COC(=O)COc1ncccc1Oc1cc(-n2c(=O)cc(C(F)(F)F)n(C)c2=O)c(F)cc1[N+](=O)[O-])OCC [I.14-422] ?
Reply | 20%

Next compound, Oryza sativa (efficacy in %) to be filled in.
Ask | Which Oryza sativa (efficacy in %) is listed for COCCOCCOC(=O)COc1ncc(F)cc1Sc1cc(-n2c(=O)cc(C(F)(F)F)n(C)c2=O)c(F)cc1Cl [I.31-23] ?
Reply | 20%

###

# System: Matricaria inodora
# method summary: Post-emergence herbicidal action
# Type: in vivo
# protocol conditions: application rate 5 g/ha, rated visually after about 3 weeks vs untreated controls
readout label: Matricaria inodora (efficacy in %)
One number for each entry, in %.

Ask | Which Matricaria inodora (efficacy in %) is listed for COCCOCCOC(=O)COc1ncccc1Oc1cc(-n2c(=O)cc(C(F)(F)F)n(C)c2=O)c(F)cc1Cl ?
Reply | 90

Ask | Which Matricaria inodora (efficacy in %) is listed for CC(C#N)COC(=O)COc1ncccc1Oc1cc(-n2c(=O)cc(C(F)(F)F)n(C)c2=O)c(F)cc1Cl (stereo not shown) ?
Reply | 80

Ask | Which Matricaria inodora (efficacy in %) is listed for Cn1c(C(F)(F)F)cc(=O)n(-c2cc(Oc3cccnc3OCC(=O)OCc3ccccn3)c(Cl)cc2F)c1=O ?
Reply | 90

Could you report Matricaria inodora (efficacy in %) for every entry in the following list?
1. Cn1c(C(F)(F)F)cc(=O)n(-c2cc(Oc3cccnc3OCC(=O)OCC3NC(=O)NC3=O)c(Cl)cc2F)c1=O (stereo not shown)
2. Cn1c(C(F)(F)F)cc(=O)n(-c2cc(Oc3cccnc3OCC(=O)OCc3ccc(C(F)(F)F)nc3)c(Cl)cc2F)c1=O
3. COCCOC(=O)CSc1ncccc1Sc1cc(-n2c(=O)cc(C(F)(F)F)n(C)c2=O)c(F)cc1Cl
4. Cn1c(C(F)(F)F)cc(=O)n(-c2cc(Sc3cccnc3SCC(=O)OC3COC3)c(Cl)cc2F)c1=O

Reply |
[90, 80, 90, 90]

###

# Test system: Echinochloa crus-galli
# method summary: Pre-emergence herbicidal action
# Type: in vivo
# protocol conditions: application rate 80 g/ha
readout label: Echinochloa crus-galli (efficacy in %)
Numbers only, in %.

Ask | Short answer please: Echinochloa crus-galli (efficacy in %), Echinochloa crus-galli, entry Cn1c(C(F)(F)F)cc(=O)n(-c2cc(Oc3cccnc3OCC(=O)OCc3ccc(C(F)(F)F)nc3)c(Cl)cc2F)c1=O
Reply | 100

Ask | Short answer please: Echinochloa crus-galli (efficacy in %), Echinochloa crus-galli, entry Cn1c(C(F)(F)F)cc(=O)n(-c2cc(Oc3cccnc3OCC(=O)OCCOCc3ccccc3)c(Cl)cc2F)c1=O
Reply | 100

Ask | Short answer please: Echinochloa crus-galli (efficacy in %), Echinochloa crus-galli, entry Cn1c(C(F)(F)F)cc(=O)n(-c2cc(Oc3cccnc3OCC(=O)OCCOC(F)(F)F)c(Cl)cc2F)c1=O
Reply | 100

Could you report Echinochloa crus-galli (efficacy in %) for every entry in the following list?
1. Cn1c(C(F)(F)F)cc(=O)n(-c2cc(Oc3cccnc3OCC(=O)OC[Si](C)(C)C)c(Cl)cc2F)c1=O
2. COCCOCCOCCOCCOC(=O)COc1ncccc1Oc1cc(-n2c(=O)cc(C(F)(F)F)n(C)c2=O)c(F)cc1Cl

Reply |
100
100

###

# Test system: Oryza sativa
# method summary: Post-emergence crop plant compatibility
# Type: in vivo
# protocol conditions: application rate 5 g/ha
readout label: Oryza sativa (efficacy in %)
One number for each entry, in %.

Ask | Which Oryza sativa (efficacy in %) is listed for Cn1c(C(F)(F)F)cc(=O)n(-c2cc(Oc3cccnc3OCC(=O)OCC[Si](C)(C)C)c(Cl)cc2F)c1=O ?
Reply | 0

Ask | Which Oryza sativa (efficacy in %) is listed for CSCCOC(=O)COc1ncccc1Oc1cc(-n2c(=O)cc(C(F)(F)F)n(C)c2=O)c(F)cc1Cl ?
Reply | 20

Ask | Which Oryza sativa (efficacy in %) is listed for Cn1c(C(F)(F)F)cc(=O)n(-c2cc(Oc3cccnc3OCC(=O)OCc3ccncc3)c(Cl)cc2F)c1=O ?
Reply | 0

Could you report Oryza sativa (efficacy in %) for every entry in the following list?
1. Cn1c(C(F)(F)F)cc(=O)n(-c2cc(Sc3cccnc3SCC(=O)OC3COC3)c(Cl)cc2F)c1=O
2. Cn1c(C(F)(F)F)cc(=O)n(-c2cc(Oc3cccnc3OCC(=O)OC3COC3)c(Br)cc2F)c1=O
3. Cn1c(C(F)(F)F)cc(=O)n(-c2cc(Sc3cccnc3SCC(=O)OCC#N)c(Cl)cc2F)c1=O
4. Cn1c(C(F)(F)F)cc(=O)n(-c2cc(Oc3cccnc3OCC(=O)OCc3cccnn3)c(Cl)cc2F)c1=O

Reply |
1. 20
2. 20
3. 20
4. 20

###

Can you tell me Oryza sativa (efficacy in %) for the items I'm about to list?
# Tested on: Oryza sativa
# method summary: Post-emergence crop plant compatibility
# Assay type: in vivo
# protocol conditions: application rate 5 g/ha

Previously resolved entries follow.
Ask | Which Oryza sativa (efficacy in %) is listed for Cn1c(C(F)(F)F)cc(=O)n(-c2cc(Oc3cccnc3OCC(=O)OCc3ccccn3)c(Cl)cc2F)c1=O [I.15-286] ?
Reply | 20%

Ask | Which Oryza sativa (efficacy in %) is listed for Cn1c(C(F)(F)F)cc(=O)n(-c2cc(Oc3cc(F)cnc3OCC(=O)OCC#N)c(Cl)cc2F)c1=O [I.36-176] ?
Reply | 20%

Ask | Which Oryza sativa (efficacy in %) is listed for COCCOCCOCCOCCOC(=O)COc1ncccc1Oc1cc(-n2c(=O)cc(C(F)(F)F)n(C)c2=O)c(F)cc1Cl [I.15-154] ?
Reply | 0%

Further cases:
Ask | Which Oryza sativa (efficacy in %) is listed for Cn1c(C(F)(F)F)cc(=O)n(-c2cc(Oc3cccnc3OCC(=O)OCCOCc3ccccc3)c(Cl)cc2F)c1=O [I.15-6] ?
Reply | 20%

###

# Tested on: Digitaria sanguinalis
# method summary: Post-emergence herbicidal action
# Assay type: in vivo
# protocol conditions: application rate 5 g/ha, rated visually after about 3 weeks vs untreated controls
Can you tell me Digitaria sanguinalis (efficacy in %) for the items I'm about to list?
Give bare numbers, in %.

Previously resolved entries follow.
Ask | Which Digitaria sanguinalis (efficacy in %) is listed for Cn1c(C(F)(F)F)cc(=O)n(-c2cc(Sc3cccnc3SCC(=O)OCC3CCOC3)c(Cl)cc2F)c1=O (stereo not shown) [I.10-72] ?
Reply | 80

Ask | Which Digitaria sanguinalis (efficacy in %) is listed for Cn1c(C(F)(F)F)cc(=O)n(-c2cc(Sc3cccnc3SCC(=O)OCC3CCCO3)c(Cl)cc2F)c1=O (stereo not shown) [I.10-71] ?
Reply | 90

Ask | Which Digitaria sanguinalis (efficacy in %) is listed for COCCOC(=O)CSc1ncccc1Sc1cc(-n2c(=O)cc(C(F)(F)F)n(C)c2=O)c(F)cc1Cl [I.10-1] ?
Reply | 80

Ask | Which Digitaria sanguinalis (efficacy in %) is listed for CSCCOC(=O)COc1ncccc1Oc1cc(-n2c(=O)cc(C(F)(F)F)n(C)c2=O)c(F)cc1Cl [I.15-31] ?
Reply | 100

Ask | Which Digitaria sanguinalis (efficacy in %) is listed for Cn1c(C(F)(F)F)cc(=O)n(-c2cc(Oc3cccnc3OCC(=O)OCc3ccccn3)c(Cl)cc2F)c1=O [I.15-286] ?
Reply | 100

Could you report Digitaria sanguinalis (efficacy in %) for every entry in the following list?
1. Cn1c(C(F)(F)F)cc(=O)n(-c2cc(Oc3cccnc3OCC(=O)OCCOC(F)(F)F)c(Cl)cc2F)c1=O [I.15-41]
2. Cn1c(C(F)(F)F)cc(=O)n(-c2cc(Oc3cccnc3OCC(=O)OCC[Si](C)(C)C)c(Cl)cc2F)c1=O [I.15-211]

Reply |
1. 100
2. 100
